Values compiled from ChEMBL document CHEMBL1127973.

The reader will find reported Log 1/ratio values listed item by item below.
Molecular target: Tubulin (Homo sapiens) (UniProt P68371+Q9H4B7+P0DPH7+P68366+Q13509+Q71U36+P04350+Q3ZCM7+P07437+P68363+Q9BQE3+Q6PEY2+Q13885+Q9BVA1+Q9BUF5)
Test: Binding affinity to microtubules, activity expressed as log 1/ID50 of compound/ID50 of paclitaxel
Format: protein-complex assay
// keep it numeric: no unit symbol after the value

CC(=O)O[C@H]1C(=O)[C@@]2(C)[C@H]([C@H](OC(=O)c3ccccc3)[C@]3(O)C[C@H](OC(=O)[C@H](NC(=O)OC(C)(C)C)[C@@H](O)c4ccccc4)C(C)=C1C3(C)C)[C@]1(OC(C)=O)CO[C@@H]1C[C@@H]2O; -1
CC(=O)O[C@H]1C(=O)[C@@]2(C)[C@H]([C@H](OC(=O)c3ccccc3)[C@]3(O)C[C@H](OC(=O)[C@H](O)[C@@H](NC(=O)c4ccccc4)c4cccc(Cl)c4)C(C)=C1C3(C)C)[C@]1(OC(C)=O)CO[C@@H]1C[C@@H]2O; -0.644
CC(=O)O[C@@]12CO[C@@H]1C[C@H](O)[C@@]1(C)C(=O)[C@H](O)C3=C(C)[C@@H](OC(=O)[C@H](O)[C@@H](NC(=O)OC(C)(C)C)c4ccccc4)C[C@@](O)([C@@H](OC(=O)c4ccccc4)[C@H]21)C3(C)C (stereo in doubt; 39); 0.301
CC(=O)O[C@H]1C(=O)[C@@]2(C)[C@H]([C@H](OC(=O)c3ccccc3)[C@]3(O)C[C@H](OC(=O)[C@H](O)[C@@H](NC(=O)c4ccccc4)c4ccccc4)C(C)=C1C3(C)C)[C@]1(OC(C)=O)CO[C@@H]1C[C@@H]2O (stereo in doubt; 14); 0.0969
CC(=O)O[C@H]1C(=O)[C@@]2(C)[C@H]([C@H](OC(=O)c3ccccc3)[C@]3(O)C[C@H](OC(=O)[C@H](O)[C@@H](NC(=O)c4ccc(Cl)cc4)c4ccccc4)C(C)=C1C3(C)C)[C@]1(OC(C)=O)CO[C@@H]1C[C@@H]2O; -0.38

What value of Log 1/ratio has been recorded for this entry: "CC(=O)O[C@@]12CO[C@@H]1C[C@H](O)[C@@]1(C)C(=O)[C@H](O)C3=C(C)[C@@H](OC(=O)[C@H](O)[C@@H](NC(=O)CCCC(=O)O)c4ccccc4)C[C@@](O)([C@@H](OC(=O)c4ccccc4)[C@H]21)C3(C)C"
0

Entry under review: "CC(=O)O[C@@]12CO[C@@H]1C[C@H](O)[C@@]1(C)C(=O)[C@H](O)C3=C(C)[C@@H](OC(=O)[C@H](NC(=O)c4ccccc4)[C@@H](O)c4ccccc4)C[C@@](O)([C@@H](OC(=O)c4ccccc4)[C@H]21)C3(C)C" . Reported Log 1/ratio?
-1

Entry under review: "CC(=O)O[C@H]1C(=O)[C@@]2(C)[C@H]([C@H](OC(=O)c3ccccc3)[C@]3(O)C[C@H](OC(=O)[C@H](O)[C@@H](NC(=O)c4ccccc4)c4ccc(C)cc4)C(C)=C1C3(C)C)[C@]1(OC(C)=O)CO[C@@H]1C[C@@H]2O" . Reported Log 1/ratio?
-0.38

Which Log 1/ratio is listed for "CCCCOC(=O)N[C@@H](c1ccccc1)[C@@H](O)C(=O)O[C@H]1C[C@@]2(O)[C@@H](OC(=O)c3ccccc3)[C@@H]3[C@]4(OC(C)=O)CO[C@@H]4C[C@H](O)[C@@]3(C)C(=O)[C@H](OC(C)=O)C(=C1C)C2(C)C" ?
0.0969

Form field: reported Log 1/ratio of "CC(=O)O[C@@]12CO[C@@H]1C[C@H](O)[C@@]1(C)C(=O)[C@H](O)C3=C(C)[C@@H](OC(=O)[C@H](O)Cc4ccccc4)C[C@@](O)([C@@H](OC(=O)c4ccccc4)[C@H]21)C3(C)C"
-0.653

Could you share which Log 1/ratio value was measured for "CC(=O)O[C@@]12CO[C@@H]1C[C@H](O)[C@@]1(C)C(=O)[C@H](O)C3=C(C)[C@@H](OC(=O)[C@H](O)[C@H](N)c4ccccc4)C[C@@](O)([C@@H](OC(=O)c4ccccc4)[C@H]21)C3(C)C" ?
-1.48

Bench note: what Log 1/ratio did "CC(=O)O[C@@]12CO[C@@H]1C[C@H](O)[C@@]1(C)C(=O)[C@H](O)C3=C(C)[C@@H](OC(=O)[C@@H](O)[C@@H](NC(=O)c4ccccc4)c4ccccc4)C[C@@](O)([C@@H](OC(=O)c4ccccc4)[C@H]21)C3(C)C" show?
-0.114

Which Log 1/ratio reading was recorded for the compound "CC(=O)O[C@@H](C(=O)O[C@H]1C[C@@]2(O)[C@@H](OC(=O)c3ccccc3)[C@@H]3[C@]4(OC(C)=O)CO[C@@H]4C[C@H](O)[C@@]3(C)C(=O)[C@H](O)C(=C1C)C2(C)C)[C@@H](NC(=O)OC(C)(C)C)c1ccccc1" ?
-1.48

// returns reported Log 1/ratio for input "CC(=O)O[C@@]12CO[C@@H]1C[C@H](O)[C@@]1(C)C(=O)[C@H](O)C3=C(C)[C@@H](OC(=O)/C=C/c4ccccc4)C[C@@](O)([C@@H](OC(=O)c4ccccc4)[C@H]21)C3(C)C"
-1.37

Bench note: what Log 1/ratio did "CC(=O)O[C@@]12CO[C@@H]1C[C@H](OC(=O)CN)[C@@]1(C)C(=O)[C@H](OC(=O)CN)C3=C(C)[C@@H](OC(=O)[C@H](O)[C@@H](NC(=O)OC(C)(C)C)c4ccccc4)C[C@@](O)([C@@H](OC(=O)c4ccccc4)[C@H]21)C3(C)C" show?
-0.0792

Using the record for "CC(=O)O[C@H]1C(=O)[C@@]2(C)[C@H]([C@H](OC(=O)c3ccccc3)[C@]3(O)C[C@H](OC(=O)[C@@H](NC(=O)c4ccccc4)[C@H](O)c4ccccc4)C(C)=C1C3(C)C)[C@]1(OC(C)=O)CO[C@@H]1C[C@@H]2O" , report its Log 1/ratio.
-2.04

I have this compound here, "CC(=O)O[C@H]1C(=O)[C@]2(C)[C@@H](OC(=O)c3ccccc3)C[C@H]3OC[C@@]3(OC(C)=O)[C@H]2[C@H](OC(=O)c2ccccc2)[C@]2(O)C[C@H](OC(=O)[C@H](O)[C@@H](NC(=O)c3ccccc3)c3ccccc3)C(C)=C1C2(C)C" , and I need its recorded Log 1/ratio.
-0.23
